- measured.on: Aurora B (Homo sapiens, UniProt Q96GD4)
- Construct: Active Aurora B enzyme (recombinant residues 1-344)
- Sequence (Q96GD4 whole entry, the tested form may be a part): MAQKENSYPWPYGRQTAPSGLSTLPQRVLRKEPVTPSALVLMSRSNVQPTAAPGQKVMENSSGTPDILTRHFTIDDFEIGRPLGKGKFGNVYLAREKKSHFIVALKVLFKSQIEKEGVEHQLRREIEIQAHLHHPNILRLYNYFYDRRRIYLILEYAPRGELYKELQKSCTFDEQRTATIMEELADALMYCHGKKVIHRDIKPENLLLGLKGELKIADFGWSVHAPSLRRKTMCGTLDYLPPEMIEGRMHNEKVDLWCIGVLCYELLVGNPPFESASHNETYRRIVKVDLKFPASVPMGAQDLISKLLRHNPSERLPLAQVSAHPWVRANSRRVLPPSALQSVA
- Sequence (Q9NQS7 826-918 partner limits assumed): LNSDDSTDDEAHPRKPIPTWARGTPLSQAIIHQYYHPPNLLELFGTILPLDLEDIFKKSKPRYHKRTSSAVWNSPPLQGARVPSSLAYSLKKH
- method.description: Aurora B enzyme inhibition (time-resolved fluorescence, histone H3 peptide)
- reported.conditions: 1 mM ATP
The following molecules are listed with their measured Ki values.

Cn1cc(Nc2ncc(Cl)c(Nc3ccc4[nH]ncc4c3)n2)cn1
< 100 nM
NC(=O)[C@@H]1[C@H](Nc2nc(Nc3cnn(-c4ccccc4)c3)ncc2Cl)[C@H]2C=C[C@@H]1C2
< 100 nM

Value lookup for Ki; key = Cn1cc(Nc2ncc(C(F)(F)F)c(N[C@@H]3[C@H](C(=O)NCCO)[C@H]4C=C[C@@H]3C4)n2)cn1.Cn1cc(Nc2ncc(C(F)(F)F)c(N[C@H]3[C@@H](C(=O)NCCO)[C@@H]4C=C[C@H]3C4)n2)cn1 (mixture of isomers) < 100 nM

Value lookup for Ki; key = NC(=O)[C@@H]1[C@H](Nc2nc(Nc3cnn(CCN4CCCC4)c3)ncc2F)[C@H]2C=C[C@@H]1C2.NC(=O)[C@H]1[C@@H](Nc2nc(Nc3cnn(CCN4CCCC4)c3)ncc2F)[C@@H]2C=C[C@H]1C2 (mixture of isomers) < 100 nM

Value lookup for Ki; key = Cc1cnc(Nc2cnn(C)c2)nc1N[C@@H]1[C@H](C(N)=O)[C@H]2C=C[C@@H]1C2.Cc1cnc(Nc2cnn(C)c2)nc1N[C@H]1[C@@H](C(N)=O)[C@@H]2C=C[C@H]1C2 (mixture of isomers) < 100 nM

---

// Ki collected for KDR (Homo sapiens, UniProt P35968)

# count of solved cases: 8
Cn1cc(Nc2ncc(C(N)=O)c(NC3C4C=CC(C4)C3C(N)=O)n2)cn1 (mixture of isomers)
100 to 1000 nM
Cn1cc(Nc2ncc(Cl)c(N[C@@H]3CCC[C@@H]3C(N)=O)n2)cn1.Cn1cc(Nc2ncc(Cl)c(N[C@H]3CCC[C@H]3C(N)=O)n2)cn1 (mixture of isomers)
< 100 nM
NC(=O)[C@@H]1[C@H](Nc2nc(Nc3cnn(C4CCNCC4)c3)ncc2Cl)[C@H]2C=C[C@@H]1C2
< 100 nM
CCn1cc(Nc2ncc(Cl)c(N[C@@H]3[C@@H]4CC[C@@H](C4)[C@@H]3C(N)=O)n2)cn1.CCn1cc(Nc2ncc(Cl)c(N[C@H]3[C@H]4CC[C@H](C4)[C@H]3C(N)=O)n2)cn1 (mixture of isomers)
< 100 nM
Cn1cc(Nc2ncc(Cl)c(Nc3ccccc3C3(O)CCC3)n2)cn1
< 100 nM
Cn1cc(Nc2ncc(F)c(N[C@@H]3[C@H]4CC[C@H](C4)[C@@H]3C(N)=O)n2)cn1.Cn1cc(Nc2ncc(F)c(N[C@H]3[C@@H]4CC[C@@H](C4)[C@H]3C(N)=O)n2)cn1 (mixture of isomers)
100 to 1000 nM
Cn1cc(Nc2ncc(Cl)c(N[C@H]3[C@@H](C(N)=O)[C@@H]4C=C[C@H]3C4)n2)cn1
< 100 nM
CCn1cc(Nc2ncc(Br)c(N[C@H]3[C@@H](C(N)=O)C[C@H]4C[C@@H]3C4(C)C)n2)cn1
< 100 nM

Value lookup for Ki; key = CCn1cc(Nc2ncc(F)c(N[C@@H]3[C@H](C(N)=O)[C@H]4C=C[C@@H]3C4)n2)cn1.CCn1cc(Nc2ncc(F)c(N[C@H]3[C@@H](C(N)=O)[C@@H]4C=C[C@H]3C4)n2)cn1 (mixture of isomers) 100 to 1000 nM

Value lookup for Ki; key = Cn1cc(Nc2ncc(C(F)(F)F)c(N[C@@H]3C[C@H]4CC[C@@H]3C4)n2)cn1.Cn1cc(Nc2ncc(C(F)(F)F)c(N[C@H]3C[C@@H]4CC[C@H]3C4)n2)cn1 (mixture of isomers) 100 to 1000 nM

Value lookup for Ki; key = NC(=O)[C@@H]1[C@H](Nc2nc(Nc3cnn(CCN4CCCC4)c3)ncc2Br)[C@H]2C=C[C@@H]1C2 (racemic) < 100 nM
